System: NCI-H460 lung
assay_protocol: NCI-60 one-dose screen, 48 h
study_conditions: 10 µM unless noted
Compounds without any hit were thinned out: in the full panel of roughly 83,000, 20% have a hit. Activity calls are given as the source filed them. The calls were made as follows: active = growth percent below 10; inactive = the rest.
Your response should consist of one outcome taken from yes for active, no for inactive

Observe how each entry below is paired with its result.
compound: O=C(Nc1ccc(Nc2ccncc2)cc1)c1ccc(C(=O)Nc2ccc(Nc3ccncc3)cc2)cc1
classification: no

compound: Cc1cc(NCCCCNc2ccnc3cc(Cl)ccc23)nc(Nc2ccc(C(=O)N3CCCC3)cc2)n1
classification: no

compound: C#Cc1cccc(NC(=O)c2ccc(NC(=O)CCl)cc2)c1
classification: yes

// next entry
Query string: Record lookup: outcome of this test for `Cc1ccc(S(=O)(=O)NCC[C@@H]2C[C@H]2c2cc3ccccc3s2)cc1` ?
Result string: no
